test.protocol: OV-KATE Cancer Cell Toxicity qHTS against the NCATS CANVASS Library (AID 1347345)
experimental.conditions: OV-KATE cells viability, CellTiter-Glo luminescence, 72 h; series mostly up to 38.3 µM
Inconclusive results are not listed. Calls of active or inactive are those of the source. Calls follow the shape of the dose curve; as a rule, active = well fitted cell-killing curve with a large enough effect; inconclusive = small, poorly fitted or top-dose-only effect; inactive = flat fitted curve, though single readings scatter.
Labels: active, inactive

{"compound": "C[C@@H](O)[C@H]1OC(=O)C=C2[C@]3(C)[C@H]4[C@H](OC(=O)[C@@]4(C)[C@@H](O)[C@H]4O[C@H]43)[C@H]3O[C@@]231", "assigned.category": "active"}
{"compound": "C/C=C/C(=O)[C@@H](C)C1=CC(=O)C2=C(O[C@@]34CC[C@H](O)C(C)(C)[C@@H]3CC[C@H](C)[C@@]4(C)C2)C1=O", "assigned.category": "active"}
{"compound": "O=C(O)[C@@]12CO[C@@]3(O)C4CCN(CC[C@H]31)[C@H]4c1c2[nH]c2ccccc12", "assigned.category": "inactive"}
{"compound": "C=C1C[C@@]23C=CC(=O)[C@@](C)(CCC(=O)Nc4c(OC5O[C@H](CO)[C@@H](O)[C@H](O)[C@H]5O)ccc(C(=O)O)c4O)C2C[C@@H]1CC3 (some centres not stated)", "assigned.category": "inactive"}
{"compound": "COC1C(O)C(OC(N)=O)C(Oc2ccc3c(O)c(NC(=O)c4ccc(O)c(CC=C(C)C)c4)c(=O)oc3c2C)OC1(C)C (configuration not stated)", "assigned.category": "inactive"}
{"compound": "O=C(O)[C@@]12COC3(O)C1CCN1CC[C@H]3[C@@H]1c1c2[nH]c2ccccc12", "assigned.category": "inactive"}
{"compound": "C=C1C(=O)O[C@H]2[C@H]1CC/C(CO)=C\\CC[C@@]1(C)O[C@@H]21", "assigned.category": "active"}

* * *

test.protocol: qHTS for Inhibitors of Plasmodium falciparum (GB4) proliferation (AID 504315); also: nearly all actives have a fitted effect of over 50% in size
experimental.conditions: P. falciparum GB4 in erythrocytes, SYBR Green DNA, 72 h; series mostly up to 6.7 µM
Results filed as inconclusive are left out. Calls of active or inactive are those of the source. Calls come from the whole dose curve; as a rule, active = well fitted inhibition curve with a large enough effect; inconclusive = small, poorly fitted or top-dose-only effect, or effect the other way; inactive = flat fitted curve, though single readings scatter.
Labels: active, inactive

{"chem.smiles": "COc1ccc([C@]23Cc4ccccc4[C@H](O2)c2c(c4ccc(OC)cc4oc2=O)O3)cc1", "assigned.category": "active"}
{"chem.smiles": "COc1ccc(O[C@H]2C=C[C@@H](c3ccccc3)O[C@H]2CON=C2[C@H]3CCn4c(=O)n(-c5ccccc5)c(=O)n4[C@@H]3[C@H](O)[C@@H]3O[C@H]23)cc1", "assigned.category": "inactive"}
{"chem.smiles": "CC(=O)OC[C@H]1O[C@@H](ON=C[C@@H](C)[C@H](OCc2ccccc2)C(C)C)[C@@H](OC(C)=O)[C@@H](OC(C)=O)[C@@H]1OC(C)=O", "assigned.category": "inactive"}

* * *

test.system: Cytochrome P450 2C9 (Homo sapiens) (UniProt P11712)
Sequence (P11712 whole entry, looked up): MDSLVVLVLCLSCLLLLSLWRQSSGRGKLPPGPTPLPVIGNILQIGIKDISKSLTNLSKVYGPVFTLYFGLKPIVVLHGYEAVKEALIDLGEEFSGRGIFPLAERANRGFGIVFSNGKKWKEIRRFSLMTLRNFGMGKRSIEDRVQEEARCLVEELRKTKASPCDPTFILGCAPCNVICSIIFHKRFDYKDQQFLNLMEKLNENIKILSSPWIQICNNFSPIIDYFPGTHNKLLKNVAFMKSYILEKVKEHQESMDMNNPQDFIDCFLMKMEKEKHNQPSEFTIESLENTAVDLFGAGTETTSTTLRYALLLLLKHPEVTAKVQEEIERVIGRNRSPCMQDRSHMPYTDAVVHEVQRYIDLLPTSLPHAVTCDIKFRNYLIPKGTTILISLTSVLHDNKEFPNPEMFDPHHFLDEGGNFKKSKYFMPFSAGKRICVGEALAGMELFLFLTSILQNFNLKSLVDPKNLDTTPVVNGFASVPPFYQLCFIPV
test.protocol: Cytochrome P450 family 2 subfamily C member 9 (CYP2C9) small molecule antagonists: luciferase biochemical (cell-free) qHTS assay (AID 1645842); also: nearly all actives have a fitted effect of over 55% in size; also: potency is read from the fitted curve at half-maximal effect
experimental.conditions: P450-Glo CYP2C9 enzyme assay, luciferin luminescence; series mostly up to 57.4 µM
Inconclusive results are not listed. The source made the active and inactive calls. Calls come from the whole dose curve; as a rule, active = well fitted inhibition curve with a large enough effect in the repeat runs; inconclusive = weak or mixed curves; inactive = no such curve, though single readings can be large or run the other way.

{"compound": "COc1cc(N2CCN(C)CC2)ccc1Nc1nccc(-c2cn(C)c3cnccc23)n1", "Potency": "inactive"}
{"compound": "CC(C)c1ccc(NC(=O)C(c2ccccc2)N(C)C(=O)Cc2c[nH]c3ccccc23)cc1 (centres undefined)", "Potency": "2.39 µM (active)"}
{"compound": "COc1cc(N2CCOCC2)ccc1Nc1ncc(F)c(Nc2ccccc2NS(C)(=O)=O)n1", "Potency": "2.13 µM (active)"}
{"compound": "CNCc1ccc(C)c(NC(=O)c2ccc(Nc3nc(-c4ccccc4)c4ccccc4n3)cc2)c1", "Potency": "inactive"}
{"compound": "COc1cc(N2CCN(C(C)=O)CC2)ccc1Nc1ncc(Cl)c(Nc2ccc(N3CCN(C(C)=O)CC3)cc2OC)n1", "Potency": "5.35 µM (active)"}
{"compound": "COc1cc2nc(-c3cc(F)ccc3O)nc(N[C@@H]3CNC[C@H]3C(C)(C)O)c2cc1OC", "Potency": "inactive"}
{"compound": "O=[N+]([O-])c1ccc(-[n+]2nc(-c3ccccc3)nn2-c2ccc(I)cc2)cc1", "Potency": "19 µM (active)"}
{"compound": "COc1ccc(C2(CNC(=O)[C@](C)(Cc3c[nH]c4ccccc34)NC(=O)Nc3ccc([N+](=O)[O-])cc3)CCCCC2)nc1", "Potency": "2.68 µM (active)"}
{"compound": "COc1cc2ncnc(Oc3cccc(NC(=O)Nc4cc(C(C)(C)C(F)(F)F)on4)c3)c2cc1OC", "Potency": "12 µM (active)"}

* * *

test.system: Ubiquitin carboxyl-terminal hydrolase 1 (Homo sapiens) (UniProt O94782)
Sequence (O94782 whole entry, looked up): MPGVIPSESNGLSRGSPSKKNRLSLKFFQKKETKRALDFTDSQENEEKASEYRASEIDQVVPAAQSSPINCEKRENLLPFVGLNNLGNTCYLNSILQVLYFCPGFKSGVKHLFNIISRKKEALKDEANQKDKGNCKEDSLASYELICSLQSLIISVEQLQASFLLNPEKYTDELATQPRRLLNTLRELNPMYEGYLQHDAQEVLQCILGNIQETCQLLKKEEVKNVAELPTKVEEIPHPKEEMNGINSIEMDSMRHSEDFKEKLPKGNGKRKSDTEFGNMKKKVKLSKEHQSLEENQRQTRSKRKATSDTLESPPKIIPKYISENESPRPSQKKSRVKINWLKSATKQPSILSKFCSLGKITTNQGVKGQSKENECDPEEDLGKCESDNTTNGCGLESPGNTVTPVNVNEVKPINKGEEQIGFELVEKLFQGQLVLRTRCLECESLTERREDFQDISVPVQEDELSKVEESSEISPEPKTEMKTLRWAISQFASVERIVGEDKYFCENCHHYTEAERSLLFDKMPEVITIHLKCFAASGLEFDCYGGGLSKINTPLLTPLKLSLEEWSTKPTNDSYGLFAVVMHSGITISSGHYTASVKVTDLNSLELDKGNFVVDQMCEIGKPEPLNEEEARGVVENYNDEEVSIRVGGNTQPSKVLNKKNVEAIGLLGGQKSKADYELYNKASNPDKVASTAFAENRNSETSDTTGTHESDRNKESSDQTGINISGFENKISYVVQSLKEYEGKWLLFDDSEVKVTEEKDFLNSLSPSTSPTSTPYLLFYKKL
test.protocol: Inhibitors of USP1/UAF1: Pilot qHTS (AID 504865); also: nearly all actives have a fitted effect of over 35% in size
experimental.conditions: purified USP1/UAF1, Ub-rhodamine cleavage fluorescence; series mostly up to 114 µM
Inconclusive results are not listed. Activity calls are given as the source filed them. Calls come from the whole dose curve; as a rule, active = well fitted inhibition curve with a large enough effect; inconclusive = small, poorly fitted or top-dose-only effect; inactive = flat fitted curve, though single readings scatter.
Labels: active, inactive

{"compound": "NC1(C(=O)O)CC(C(=O)O)C1 (stereo not given)", "assigned.category": "inactive"}
{"compound": "CC(C)=CCC/C(C)=C/CC/C(C)=C/CC/C(C)=C/CO", "assigned.category": "inactive"}
{"compound": "CCOC(=O)[C@@]12C[C@@H]1/C(=N/O)c1ccccc1O2", "assigned.category": "inactive"}
{"compound": "CN(C)C/C=C(\\c1ccc(Br)cc1)c1cccnc1", "assigned.category": "inactive"}
{"compound": "CC1(C)C(=O)NC2=C1C(=O)C(=O)c1ccccc12", "assigned.category": "active"}
{"compound": "N[C@]1(C(=O)O)CCc2cc(P(=O)(O)O)ccc21", "assigned.category": "inactive"}
{"compound": "CCCCCCc1c(C[C@H](N)C(=O)O)o[nH]c1=O", "assigned.category": "inactive"}
{"compound": "COCCNC(=O)COc1ccc(OCCNC[C@@H](O)COc2ccccc2)cc1", "assigned.category": "inactive"}
{"compound": "C[C@H](N=C(NC#N)Nc1ccncc1)C(C)(C)C", "assigned.category": "inactive"}
{"compound": "Cc1nc2c(O)cccc2c(=O)[nH]1", "assigned.category": "inactive"}
{"compound": "CCOC(=O)c1c(C)[nH]c2ccc3c(c12)CN1CCc2cc(OC)ccc2[C@@H]1O3", "assigned.category": "inactive"}
{"compound": "Clc1cccc(C=NC=Nc2cccc(Cl)c2)c1", "assigned.category": "inactive"}
{"compound": "CCS(=O)(=O)N(C)[C@@H]1c2cc(C#N)ccc2OC(C)(C)[C@H]1O", "assigned.category": "inactive"}
{"compound": "CC[C@]1(O)C[C@@H]2CN(CCc3c([nH]c4ccccc34)[C@](C(=O)OC)(c3cc4c(cc3OC)N(C)[C@H]3[C@](O)(C(=O)OC)[C@@H](C(=O)OC)[C@@]5(CC)C=CCN6CC[C@@]43[C@@H]65)C2)C1", "assigned.category": "inactive"}
{"compound": "CC1(C)CC(=O)C([C@H]2C3=C(CC(C)(C)CC3=O)Oc3ccccc32)C(=O)C1", "assigned.category": "inactive"}
{"compound": "NCCOB(c1ccccc1)c1ccccc1", "assigned.category": "inactive"}
{"compound": "O=C(O)CCC/C=C\\C[C@@H]1CO[C@H](C(F)(F)F)O[C@@H]1c1ccccc1O", "assigned.category": "inactive"}
{"compound": "COC(=O)[C@@H]1[C@@H]2C[C@H]3c4[nH]c5ccccc5c4CCN3C[C@@H]2CC[C@@H]1O", "assigned.category": "inactive"}
{"compound": "CN1Cc2c(C(=O)OC(C)(C)C)ncn2-c2ccsc2C1=O", "assigned.category": "inactive"}
{"compound": "CC(C)C[C@H](NC(=O)N1CCCCCC1)C(=O)N[C@H](Cc1cn(C)c2ccccc12)C(=O)N[C@H](Cc1ccccn1)C(=O)O", "assigned.category": "inactive"}

* * *

System: Zika virus NS2B-NS3 protease (unlinked complex)
test.protocol: Primary screen GU Rhodamine qHTS for Zika virus inhibitors: Unlinked NS2B-NS3 protease assay (AID 1347159); also: nearly all actives have a fitted effect of over 60% in size; also: potency is read from the fitted curve at half-maximal effect
experimental.conditions: Recombinant ZIKV NS2B-NS3 protease, Rhodamine110 substrate fluorescence; series mostly up to 107 µM
Results filed as inconclusive are left out. Activity calls are given as the source filed them. Calls follow the shape of the dose curve; as a rule, active = well fitted inhibition curve with a large enough effect; inconclusive = small, poorly fitted or top-dose-only effect; inactive = no such curve, though single readings can be large or run the other way.
endpoint: Potency

{"compound": "CNc1nc(-c2ccc3c(N)n[nH]c3c2)cc(N2CC(C(=O)NC3CCCCC3)CCC2C)n1 (stereo unspecified)", "result": "inactive"}
{"compound": "COc1cccc(NC[C@@H](O)Cn2c3ccc(Br)cc3c3cc(Br)ccc32)c1", "result": "44.7 µM (active)"}
{"compound": "O=S(=O)(c1cccc2ccccc12)n1ccc2ccc(N3CCN4CCCC4C3)cc21 (stereo unspecified)", "result": "inactive"}
{"compound": "CCCCn1c(-c2ccccc2)nc(-c2ccccc2)c1CN(Cc1ccc2c(c1)OCO2)Cc1ccc2c(c1)OCO2", "result": "inactive"}
{"compound": "C/C=C(/COC(=O)/C(C)=C/C)C(=O)OC/C=C/c1ccc(OC)cc1", "result": "inactive"}
{"compound": "Clc1ccccc1CNCC1CCC(CNCc2ccccc2Cl)CC1 (stereo unspecified)", "result": "inactive"}
{"compound": "CC1CCC2(NC1)OC1CC3C4CC=C5CC(O[C@@H]6O[C@H](CO)[C@@H](O[C@@H]7O[C@@H](C)[C@H](O)[C@@H](O)[C@H]7O)[C@H](O)[C@H]6O[C@@H]6O[C@@H](C)[C@H](O)[C@@H](O)[C@H]6O)CCC5(C)C4CCC3(C)C1C2C (stereo partly specified)", "result": "inactive"}
{"compound": "C=CC(=O)N1CCN(C(=O)c2cc(-c3cc(Cl)ccc3Cl)c(Cl)cc2OC)CC1", "result": "inactive"}
{"compound": "COc1ccc2c(c1)C[C@H](C(=O)Nc1ccc(-c3cn[nH]c3)cc1OCCN(C)C)CO2", "result": "inactive"}
{"compound": "CC(C)c1ccc(NC(=O)C(c2ccccc2)N(C)C(=O)Cc2c[nH]c3ccccc23)cc1 (stereo unspecified)", "result": "79.4 µM (active)"}
{"compound": "C[C@@H](CN1CCC(n2c(=O)[nH]c3cc(Cl)ccc32)CC1)NC(=O)c1ccc2ccccc2c1", "result": "inactive"}
{"compound": "Cc1ccc2c(Nc3ccc(Cl)cc3)nccc2c1Nc1ncccc1-c1ncnc2nc[nH]c12", "result": "inactive"}
{"compound": "COc1cc(N2CCN(C)CC2)ccc1Nc1nccc(-c2cn(C)c3cnccc23)n1", "result": "inactive"}
{"compound": "N#CCC(C1CCCC1)n1cc(-c2ncnc3[nH]ccc23)cn1 (stereo unspecified)", "result": "inactive"}
{"compound": "CC[C@H]1OC(=O)[C@H](C)[C@@H](O[C@H]2C[C@@](C)(OC)[C@@H](O)[C@H](C)O2)[C@H](C)[C@@H](O[C@@H]2O[C@H](C)C[C@H](N(C)C)[C@H]2O)[C@](C)(O)C[C@@H](C)/C(=N/OCOCCOC)[C@H](C)[C@@H](O)[C@]1(C)O", "result": "inactive"}
{"compound": "CC(=O)N1c2ccc(-c3ccc(C(=O)O)cc3)cc2C(Nc2ccc(Cl)cc2)CC1C (stereo unspecified)", "result": "20 µM (active)"}
